From: patent US5840911A

# measurement.protocol: Maximum tolerable dose (MTD)
# Set-up: species or system mice
# test.settings: mouse, in vivo, po; read-out: maximum tolerated dose
Where a name gives a salt, the structure may show the parent alone.
property.label: MTD at 240 h

MTD at 240 h recorded for this compound, N=C(N)c1cccc2c1CCC2=Nn1cc(-c2ccccc2)nc1N [Example 2, dihydrochloride] , is > 500 mg/kg

---

Parameter 'readout' = pIC50; parameter 'system' = S-adenosylmethionine decarboxylase (SAMDC) (Rattus norvegicus).
Sequence (P17708 68-333 limits assumed): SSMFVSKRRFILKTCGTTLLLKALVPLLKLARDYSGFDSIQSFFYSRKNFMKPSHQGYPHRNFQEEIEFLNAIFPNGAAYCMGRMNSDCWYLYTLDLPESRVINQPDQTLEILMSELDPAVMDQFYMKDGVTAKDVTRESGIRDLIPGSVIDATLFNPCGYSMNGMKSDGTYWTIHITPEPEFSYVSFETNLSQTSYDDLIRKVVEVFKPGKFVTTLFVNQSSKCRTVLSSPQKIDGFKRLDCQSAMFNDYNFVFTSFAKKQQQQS
Sequence (P17708 1-67 limits assumed): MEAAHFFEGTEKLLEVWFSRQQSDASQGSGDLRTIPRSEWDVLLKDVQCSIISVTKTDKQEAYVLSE
Counter-ions that a name gives are not always drawn.
Note on pIC50: it is the negative log10 of concentration, concentration in mol/L.

The reported value for N=C(N)c1cccc2c1CCC2=Nn1cc(-c2ccccc2)nc1N [Example 2, dihydrochloride] in terms of pIC50 is 8.70

CCc1cn(N=C2CCc3c(C(=N)N)cccc32)c(N)n1 [Example 18, dihydrochloride] has a reported pIC50 of 8.21

// recorded pIC50 for N=C(N)c1cccc2c1CCC2=Nn1cc(-c2ccc(-c3ccccc3)cc2)nc1N [Example 22, dihydrochloride] : 7.96

The reported value for Cc1ccc(-c2cn(N=C3CCc4c(C(=N)N)cccc43)c(N)n2)cc1 [Example 14, dihydrochloride] in terms of pIC50 is 8.47

// N=C(N)c1cccc2c1CCC2=Nn1cc(-c2ccc(Cl)cc2)nc1N [Example 12, dihydrochloride] : pIC50 value = 8.17

Reported pIC50 of COc1ccccc1-c1cn(N=C2CCc3c(C(=N)N)cccc32)c(N)n1 [Example 6, dihydrochloride] : 8.08

The recorded pIC50 for entry COc1ccc(-c2cn(N=C3CCc4c(C(=N)N)cccc43)c(N)n2)cc1 [Example 4, dihydrochloride] equals 8.44

In plain terms, COc1ccc(OC)c(-c2cn(N=C3CCc4c(C(=N)N)cccc43)c(N)n2)c1 [Example 8, dihydrochloride] has a documented pIC50 of 8.05

Sure, the documented pIC50 for N=C(N)c1cccc2c1CCC2=Nn1cc(-c2ccc(F)cc2)nc1N [Example 16, dihydrochloride] is 8.40

Recorded result, COc1cccc(-c2cn(N=C3CCc4c(C(=N)N)cccc43)c(N)n2)c1 [Example 10, dihydrochloride] , pIC50: 8.38

The reported value for N=C(N)c1cccc2c1CCC2=Nn1cc(-c2ccc3ccccc3c2)nc1N [Example 24, dihydrochloride] in terms of pIC50 is 8.12

Form: molecule = N=C(N)c1cccc2c1CCC2=NN1CCN=C1N [Example 20, dihydrochloride] ; pIC50 = 8.47

# pIC50 of CC(C)(C)c1ccc(-c2cn(N=C3CCc4c(C(=N)N)cccc43)c(N)n2)cc1 [Example 28, dihydrochloride] = 8.27

---

# measurement.protocol: Maximum tolerable dose (MTD)
# Design: species or system mice
# test.settings: mouse, in vivo, ip; read-out: maximum tolerated dose
Structures can show the parent of a compound that is named as a salt.
property.label: MTD at 240 h

Entry under test: N=C(N)c1cccc2c1CCC2=Nn1cc(-c2ccccc2)nc1N [Example 2, dihydrochloride] . Its MTD at 240 h was 125 mg/kg
